# Tested on: spring barley (Hordeum vulgare L; HORVS)
# Assay remarks: Postemergence herbicidal safening in cereal crops, greenhouse, visual injury: spring barley
# Assay type: in vivo
# Test settings: Hordeum vulgare, post-emergence, 480 h; herbicide alone 35 g ae/ha; 20-22 d; read-out: HORVS Ob (visual injury)
Recorded metric: pest or weed control at 35 g/ha
Phrase the answer as number then unit, nothing more needed.

For orientation, consider the following solved cases.
{"columns": ["Smi", "Experimental result"],
 "data": [
  ["C=Cc1c(N)nc(-c2ccc(Cl)c(OC)c2F)nc1C(=O)O", "68%"],
  ["COc1c(N)nc(-c2ccc(C)cc2)nc1C(=O)O", "25%"],
  ["COc1c(N)nc(-c2ccc(C(F)(F)F)cc2)nc1C(=O)O", "50%"],
  ["C=Cc1c(N)nc(-c2ccc(Cl)c(N(C)C)c2F)nc1C(=O)O", "70%"],
  ["COc1c(N)nc(-c2ccc(Cl)c(OC)c2F)nc1C(=O)O", "75%"]
]}

pest or weed control at 35 g/ha reading for `COC(=O)c1nc(-c2ccc(Cl)c(OC)c2F)nc(N)c1OC` : 75%

pest or weed control at 35 g/ha reading for `C=Cc1c(N)nc(-c2ccc(Cl)c(OC)c2F)nc1C(=O)OC` : 10%
